- System: OVCAR-5 ovarian
- assay-procedure: NCI tumour cell line growth inhibition, 48 h; in the data active means GI50 below about 0.43 µM; inactive means the rest
The categories you may choose from are Y for active, N for inactive

Check out these entries, answers already filled in.
c1ccc(CN2COc3c(ccc4c3OCN(Cc3ccccc3)C4)C2)cc1 | N
CC(=O)C1=C(O)C=C2Oc3c(C(=O)/C=C/c4c(Cl)cccc4Cl)c(O)c(C)c(O)c3[C@]2(C)C1=O | N
CC(C)=CCC/C(C)=C/CC/C(C)=C/CSc1ccccc1C(=O)O | N
S=C(Nc1ccc(-c2nc3ccccc3[nH]2)cc1)Nc1ccc(-c2nc3ccccc3[nH]2)cc1 | N
O=C(COc1cc(O)c2c(=O)cc(-c3ccccc3)oc2c1)Nc1ccccc1C(F)(F)F | N

stdin: Called result for `CC(=O)OC(C)(C)/C(C)=C/C(=O)O[C@H]1C(=O)O[C@@H]2C[C@H]3[C@H](C)C(=O)C(O[C@@H]4O[C@H](CO)[C@@H](O)[C@H](O)[C@H]4O)=C[C@]3(C)[C@H]3[C@@H](O)[C@H](O)[C@@]4(C(=O)O)OC[C@]32[C@@H]14`
stdout: N

stdin: Called result for O=C(c1ccccc1)C1OC1c1ccc([N+](=O)[O-])cc1 (configuration not stated)
stdout: N

stdin: Called result for `Nc1c(C(=O)Nc2cccc(F)c2)sc2nc3c(cc12)C(=O)CCC3`
stdout: N

* * *

- Tested on: NCI/ADR-RES ovarian
- assay-procedure: NCI tumour cell line growth inhibition, 48 h
Parameter TGI: see the listing below.

O=C(NCCCO)c1cc(Cl)ccc1O | 27.9 µM

Lab note: measured TGI of `N=c1ccn(O)cc1/C=C1/C(=O)Nc2ccccc21` was > 100 µM

Lab note: measured TGI of `O=c1c2cc3c(=O)n4c(cc(-c5ccccc5)c5cc(Cl)ccc54)nc3cc2nc2cc(-c3ccccc3)c3cc(Cl)ccc3n12` was > 100 µM

Lab note: measured TGI of CCN(CC)c1ccc(C(O)C2=CC(=O)c3ccccc3C2=O)cc1 (stereo not given) was > 100 µM

Lab note: measured TGI of COc1ccc2ccccc2c1C1NC(=O)c2ccccc2N1 (stereo not given) was 3.02 µM

Lab note: measured TGI of `COc1cc(-c2cc(O)c(-c3ccc4ccccc4n3)c(=O)[nH]2)cc(OC)c1OC` was > 100 µM

* * *

- System: UACC-62 melanoma
- assay-procedure: NCI tumour cell line growth inhibition, 48 h
property-name: TGI (µM)
Numbers only; they are read as µM.

Sample records with TGI:
O=c1cc(-c2cccc3c2Sc2ccccc2S3)oc(N2CCOCC2)c1 | 22.1
NCCOCCOCCNc1nc(-c2ccccc2)nc(N2CCN(c3ccccn3)CC2)n1 | 19.4
CCN(CC)CCCNCc1cc(-c2ccccc2)nc2ccccc12 | 8.37

Okay, now this compound:
Item: `COc1ccc(/C=C2\CCS(=O)(=O)c3ccccc3C2=O)cc1` | System: UACC-62 melanoma | TGI: 42.4

* * *

- Tested on: SN12C renal
- assay-procedure: NCI tumour cell line growth inhibition, 48 h; in the data active means GI50 below about 0.43 µM; inactive means the rest
The categories you may choose from are active, inactive

O=C(Nc1ccncc1)C(=O)c1cn(S(=O)(=O)c2ccc(Cl)cc2)c2ccccc12 | inactive
Clc1ccc(-c2c3c(nn2-c2ccccn2)CCc2ccccc2-3)cc1Cl | inactive
O=C(COc1cc(O)c2c(=O)cc(-c3ccccc3)oc2c1)Nc1ccccc1C(F)(F)F | inactive

stdin: Called result for `O=C(NCCCO)c1cc(Cl)ccc1O`
stdout: inactive

stdin: Called result for `COc1cc(C(=O)N2CCN(c3ncnc4ccccc34)CC2)c(N)cc1OCc1ccccc1`
stdout: inactive

stdin: Called result for `CCC(=C/[C@H](C)C/C=C/C(C)=C/[C@@H](C)C(=O)[C@@H](C)[C@H](O)[C@@H](C)CC)/C=C/[C@@H]1OC(=O)C=C[C@H]1C`
stdout: active

stdin: Called result for CCN(CC)CC(O)CNc1c2ccc([N+](=O)[O-])cc2nc2cc(OC)c(OC)cc12 (configuration not stated)
stdout: active

stdin: Called result for `CC(C)=CCC[C@](C)(O)[C@H]1CC[C@]2(C)[C@@H]1CC[C@@H]1[C@@]3(C)CC/C(=N/O)C(C)(C)[C@@H]3CC[C@]12C`
stdout: inactive

stdin: Called result for O=C(c1ccccc1)C1OC1c1ccc([N+](=O)[O-])cc1 (configuration not stated)
stdout: inactive

stdin: Called result for `Oc1ccc(-c2nc3ccccc3s2)cc1CN(Cc1ccccn1)Cc1ccccn1`
stdout: inactive

stdin: Called result for `c1ccc(CN2COc3c(ccc4c3OCN(Cc3ccccc3)C4)C2)cc1`
stdout: inactive

stdin: Called result for `C#CCSc1cc(Cl)c(C)cc1S(=O)(=O)Nc1nc2ccccc2o1`
stdout: inactive

stdin: Called result for `Cc1nc2ccccc2c(/C=C/c2ccc(Cl)cc2)c1C(=O)/C=C/c1ccc(C(F)(F)F)cc1`
stdout: inactive

Origin of measurements: PubChem BioAssay (NCI)
